- assay.details: In vivo pharmacokinetic test, drug concentration in blood plasma by LC-MS/MS
- Parameters: species or system SD rats
- condition.details: male, SD, rat, plasma, iv, 1 mg/kg, SD rats, intravenous 1 mg/kg, 4 h, animal 101M
observable: concentration at 4 h

1. CCOc1cccc(Nc2nn(C)c3c2Cc2cc(OCC)c(OCC(N)=O)cc2-3)c1 [LL-01] ... 87.6 ng/mL

----------
- assay.details: In vivo pharmacokinetic test, drug concentration in blood plasma by LC-MS/MS
- Set-up: species or system SD rats
- condition.details: male, SD, rat, plasma, iv, 1 mg/kg, male SD rats, single intravenous 1 mg/kg, Mean; read-out: AUCINF—pred
- Text: 2. Test animal: SD rats, which are 284-304 g before the test, and bought from Shanghai Xipuer-Bikai laboratory animal Co., Ltd. with production license No. SCXK (Hu) 2013-0016, and laboratory animal certificate Nos. 2008001658223 and 2008001658296. […] The content of compound LL-01 in SD rat blood plasma is detected by use of LC-MS/MS method. […]
observable: AUC(0-inf) (ng·h/mL)

1. CCOc1cccc(Nc2nn(C)c3c2Cc2cc(OCC)c(OCC(N)=O)cc2-3)c1 [LL-01] ... 3040

----------
- assay.details: MDCK cell permeability test
- condition.details: dog, MDCK, Recovery rate B→A, 90 min; 3rd line of the compound (condition not given)
observable: recovery at 90 min, 10 µM (%)

1. CCOc1cccc(Nc2nn(C)c3c2Cc2cc(OCC)c(OCC(N)=O)cc2-3)c1 ... 84.6

----------
- assay.details: In vivo pharmacokinetic test, drug concentration in blood plasma by LC-MS/MS
- Design: species or system SD rats
- condition.details: SD, rat, plasma, po, 10 mg/kg, SD rats, oral 10 mg/kg, 0.25 h, animal 201M
observable: concentration at 0.25 h (ng/mL)

1) CCOc1cccc(Nc2nn(C)c3c2Cc2cc(OCC)c(OCC(N)=O)cc2-3)c1 [LL-01] ... 159

----------
- assay.details: MDCK cell permeability test
- condition.details: dog, MDCK, Recovery rate B→A, 90 min; 1st line of the compound (condition not given)
observable: recovery at 90 min (%)

1) CCOc1cccc(Nc2nn(C)c3c2Cc2cc(OCC)c(OCC(N)=O)cc2-3)c1 [LL-01] ... 102
2) CCOc1cccc(Nc2nn(C)c3c2Cc2cc(OCC)c(OCC(=O)NO)cc2-3)c1 [LL-02] ... 91.3
3) CC(C)CN(C[C@@H](O)[C@H](Cc1ccccc1)NC(=O)O[C@H]1CCOC1)S(=O)(=O)c1ccc(N)cc1 [Amprenavir, amprenavir, reference compound] ... 102

----------
- assay.details: in vitro
- condition.details: human, microsomes, pH 7.47
observable: half-life at 1 µM (min)

1. CCOc1cccc(Nc2nn(C)c3c2Cc2cc(OCC)c(OCC(N)=O)cc2-3)c1 ... 44.7
2. CCOc1cccc(Nc2nn(C)c3c2Cc2cc(OCC)c(OCC(=O)NO)cc2-3)c1 ... 12.9

----------
- assay.details: In vivo pharmacokinetic test, drug concentration in blood plasma by LC-MS/MS
- Parameters: species or system SD rats
- condition.details: SD, rat, plasma, po, 10 mg/kg, SD rats, oral 10 mg/kg, 0.5 h, Mean
observable: concentration at 0.5 h

1. CCOc1cccc(Nc2nn(C)c3c2Cc2cc(OCC)c(OCC(N)=O)cc2-3)c1 ... 558 ng/mL
